biological target: IMP-1 (Serratia marcescens); test: Enzyme activity: determination of IC50, fluorescence assay with CCF2-FA substrate; type: biochemical; settings: IMP-1 enzyme 2 pM, CCF2-FA 1.25 μM, 2 hours at 25° C.; read-out: IMP1 IC50
Sequence (P52699 19-246, looked up, species assumed): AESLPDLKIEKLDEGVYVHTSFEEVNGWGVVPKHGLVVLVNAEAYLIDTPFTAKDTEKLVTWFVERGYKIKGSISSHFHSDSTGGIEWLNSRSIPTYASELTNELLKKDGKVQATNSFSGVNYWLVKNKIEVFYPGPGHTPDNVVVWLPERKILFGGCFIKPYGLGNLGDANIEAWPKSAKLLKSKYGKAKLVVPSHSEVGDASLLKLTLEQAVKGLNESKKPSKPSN
Listing of entries alongside the reported log10 of IC50.
All values: log10 IC50 [nM].

[[record]]
compound = "CCC[C@H](C(=O)O)[C@H](Cc1ccc2nsnc2c1)c1nnn[nH]1"
quantitative_result = 2.81

[[record]]
compound = "CC(C)C[C@H](C(=O)O)[C@H](Cc1ccc(NCCC(N)C(F)(F)F)nc1)c1nnn[nH]1 (stereo partly drawn)"
quantitative_result = 2.51

[[record]]
compound = "CCC[C@H](C(=O)O)[C@H](Cc1ccc(C2CCN(C=N)CC2)nc1)c1nnn[nH]1"
quantitative_result = 3.64

[[record]]
compound = "CCC[C@H](C(=O)O)[C@H](Cc1ccc(COCCN2CCOCC2)cc1)c1nn[nH]n1"
quantitative_result = 2.90


Next up:
Request: Can you look up the measured log10 of IC50 of CCC[C@H](C(=O)O)[C@H](Cc1ccc2nonc2c1)c1nnn[nH]1 for me?
Response: 3.34

* * *

Reported pIC50 is given for each of the following compounds.
molecular target: NDM-1 (Klebsiella pneumoniae, UniProt C7C422); assay: Enzyme activity: determination of IC50, fluorescence assay with CCF2-FA substrate; format: biochemical; conditions: NDM-1 enzyme 1 pM, CCF2-FA 1.25 μM, 2 hours at 25° C.; read-out: NDM1 IC50
Sequence (C7C422 29-270, looked up, species assumed): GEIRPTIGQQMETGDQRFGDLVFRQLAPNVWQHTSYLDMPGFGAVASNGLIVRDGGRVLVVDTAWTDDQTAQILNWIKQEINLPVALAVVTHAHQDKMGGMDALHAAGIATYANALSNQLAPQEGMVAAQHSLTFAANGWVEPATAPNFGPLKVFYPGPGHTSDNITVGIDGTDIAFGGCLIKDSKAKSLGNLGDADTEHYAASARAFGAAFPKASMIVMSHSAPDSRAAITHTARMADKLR
Formally, pIC50 is defined as -log10 of the concentration c, with c in mol/L.

These solved cases illustrate the format of a correct answer.
[[record]]
compound = "CC(C)C[C@H](C(=O)O)[C@H](Cc1ccc(N2CC(CO)(CO)C2)nc1)c1nnn[nH]1"
quantitative_result = 7.00

[[record]]
compound = "CCC[C@H](C(=O)O)[C@H](Cc1ccc(C(=O)N2CCC(N)CC2)cc1)c1nnn[nH]1"
quantitative_result = 8.00


Request: Find pIC50 (NDM-1 (Klebsiella pneumoniae, UniProt C7C422)) for the entry CC(C)C[C@H](C(=O)O)[C@H](Cc1ccc(Oc2ccccc2N2CCNCC2)nc1)c1nn[nH]n1 [Example 387]
Response: 6.06

Request: Recall the recorded pIC50 for CCC[C@H](C(=O)O)[C@H](Cc1cccc(-c2cccnc2)c1)c1nn[nH]n1 with NDM-1 (Klebsiella pneumoniae, UniProt C7C422) and state it.
Response: 8.44

* * *

test system: Klebsiella pneumoniae expressing VIM-1 (IHMA599644); experiment: Antibiotic potentiation activity: synergistic concentration (MITC95) with imipenem, growth by OD600; format: cell-based; settings: 95% inhibition of bacterial growth, strain IHMA599644
Assay Endpoint: VIM1 KP599644 MITC95 (µM)
Number only, in µM; omit the unit.

[[record]]
molecule = "CCC[C@H](C(=O)O)[C@H](Cc1ccc(NCCO)nc1)c1nnn[nH]1"
quantitative_result = 9.4


Request: Quick one: VIM1 KP599644 MITC95 for CC(C)[C@H](C(=O)O)[C@H](Cc1ccc(N)cn1)c1nnn[nH]1 ?
Response: 12.5

Request: Data request, read-out VIM1 KP599644 MITC95, for CCC[C@H](C(=O)O)[C@H](Cc1ccc(N2CCN(C)CC2)cc1)c1nn[nH]n1
Response: 50

Request: Reported VIM1 KP599644 MITC95 for CC(C)[C@H](C(=O)O)[C@H](CC1CCNCC1)c1nnn[nH]1 : what is it?
Response: 37.5

Request: Given the molecule CC(C)[C@H](C(=O)O)[C@H](Cc1ccc(-c2ccc3c(c2)CNC3)nc1)c1nnn[nH]1 , what is its reported VIM1 KP599644 MITC95?
Response: 18.8
